Assay: qHTS assay to identify small molecule agonists of H2AX - cell viability counter screen (AID 1224847); further: nearly all actives have a fitted effect of over 30% in size
Conditions: CHO-K1 viability, CellTiter-Glo luminescence, 3 h; series mostly up to 154 µM
From the text: National Center for Advancing Translational Sciences [NCATS] NIH Chemical Genomics Center [NCGC] U.S. Environmental Protection Agency [EPA] National Institutes of Environmental Health Sciences [NIEHS] National Toxicology Program [NTP] U.S. Food and Drug Administration [FDA] HTRF phospho-H2AX (Ser139) assay (Cisbio Bioassays, US) enables the quantitative detection of the histone variant H2AX when phosphorylated on serine 139. […]
Inconclusive results are not listed. Active and inactive are the calls of the source. The call rests on the fitted dose curve.
# valid calls are active, inactive; nothing else

For orientation, consider the following solved cases.
COMPOUND: CCCCn1cc[n+](C)c1.[Cl][Fe-]([Cl])([Cl])[Cl]
CATEGORY: inactive
--
COMPOUND: BrCCCBr
CATEGORY: inactive
--
COMPOUND: c1csc(-c2ccc(-c3cccs3)s2)c1
CATEGORY: inactive
--
COMPOUND: CN1C(=O)[C@@H](NC(=O)c2cc3ccccc3[nH]2)N=C(c2ccccc2)c2ccccc21
CATEGORY: inactive

Request: Short answer needed: outcome of this test for CC(Cl)CCl (stereo not drawn) ?
Response: inactive

Request: Short answer needed: outcome of this test for CCC(OC(C)=O)C(CC(C)NC)(c1ccccc1)c1ccccc1 (stereo not drawn) ?
Response: active

Request: Short answer needed: outcome of this test for "Clc1cc(Cl)c(-c2cc(Cl)c(Cl)cc2Cl)cc1Cl" ?
Response: inactive
